In this section, each of the compounds is paired with its reported TGI.
Test system: DU-145 prostate
Assay: NCI tumour cell line growth inhibition, 48 h

TGI for CC[C@@]1(O)C(=O)OCc2c1cc1n(c2=O)Cc2c-1nc1ccccc1c2/C=N\NC(=O)C1CCCN1 (stereo not given in full) ?
> 100 µM

Follow-up entry: "COc1ccc(/C=C/C(=O)/C=C/c2cc3ccccc3[nH]c2=O)cc1"
10.3 µM

Follow-up entry: COC(=O)C1C(O)CCC2CN3CCc4c([nH]c5ccccc45)C3CC21 (stereo not given)
> 100 µM

Follow-up entry: COC(=O)CCC1=C(CC(=O)OC)C(C)(OC)N=C1NC(=O)OCc1ccccc1 (stereo not given)
> 100 µM

Now for another entry.
TGI for "O=S(=O)(NCCNc1nccc(-c2c(-c3ccc(F)c(O)c3)nc3sccn23)n1)c1ccc(F)cc1" ?
29.2 µM
